Biological target: C-domain fragment of calmodulin (CaMC, residues 76-148) (paramecium, UniProt P07463 77-149)
Sequence (P07463 77-149): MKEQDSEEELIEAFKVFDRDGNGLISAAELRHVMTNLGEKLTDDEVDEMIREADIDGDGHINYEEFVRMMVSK
Test: other fluorescence titration
Value type: Kd (nM)
Numbers only, in nM.

Return Kd for the following binder: KRKQEEVSAIVIQRAYRRYLLKQKVKK (domain or fragment) [NaV1.2 IQ biosensor (rat NaV1.2 residues 1901-1927 flanked by YFP and CFP)]
11.6
